Give measured TGI for each item. Keep answers brief.
system: COLO 205 colon; test: NCI tumour cell line growth inhibition, 48 h

Some compounds with recorded TGI:
{"compound": "CCOP(=O)(OCC)C(c1ccccc1)N(C(=O)NC(F)(F)F)c1ccc(C)cc1 (stereo unspecified)", "TGI": "> 100 µM"}
{"compound": "C[C@@H]([C@H]1CC[C@@]2(C)[C@@H]3CC[C@@H]4C(=CC3=CC[C@]12C)CC[C@H](N(C)C)C4(C)C)N(C)C", "TGI": "> 100 µM"}
{"compound": "O=Cn1c2ccccc2c2ccccc21", "TGI": "> 100 µM"}
{"compound": "CSCCC(NC(=O)C(Cc1c[nH]c2ccccc12)NC(=O)CCNC(=O)OC(C)(C)C)C(=O)NC(CC(=O)O)C(=O)NC(Cc1ccccc1)C(N)=O (stereo unspecified)", "TGI": "> 50 µM"}
{"compound": "CN(Cc1cnc2nc(N)nc(N)c2n1)c1c(Cl)cc(C(=O)NC(CCC(=O)O)C(=O)O)cc1Cl (stereo unspecified)", "TGI": "> 100 µM"}

Give TGI for each of the items listed below.
1. O=C1C(=O)N(c2cc(Cl)ccc2Cl)C(=O)C(=O)C1c1nc2ccccc2s1
2. COc1ccc(C(=O)Cn2c(C(=O)c3ccc(Cl)cc3)nc(-c3ccccc3)c2-c2ccccc2)cc1
3. COC(=O)C1=C(O)c2cc(OC)c(OC)c(OC)c2C(c2ccc3c(c2)OCO3)[C@@H]1C(=O)OC (stereo partly specified)
4. CC(=O)OC1C2CCC3CC2C2(SCCS2)C31 (stereo unspecified)
5. O=S1(=O)N=C(SCc2c[nH]c3ccccc23)N(c2ccccc2)c2ccncc21
6. O=C(Oc1cncc(Cl)c1)c1cc2ccccc2sc1=O

stdout:
> 100 µM
> 100 µM
6.37 µM
> 100 µM
> 100 µM
> 100 µM

Give TGI for each of the items listed below.
1. Cc1cccc(NC(=S)Nc2cccc(Cl)c2)n1
2. O=C(NCc1cn(Cc2cccc(Oc3ccccc3)c2)nn1)c1cccnc1NCc1ccc(Cl)cc1
3. CC(C)(C)c1cc(C(C)(C)C)c(SC2OC(CO)C(O)C(O)C2O)c(O)c1O (stereo unspecified)
4. Oc1c(NCn2nc(CCCCCCCCc3nn(CNc4ccc5ccccc5c4O)c(=S)o3)oc2=S)ccc2ccccc12
5. O=Cc1c2c(cc3c1CC1(C3)Cc3cc4c(c(C=O)c3C1)CCC4)CCC2

stdout:
1. > 100 µM
2. 4.04 µM
3. > 81.4 µM
4. > 100 µM
5. 57.4 µM

Give TGI for each of the items listed below.
1. COc1ccc(NCn2nc(CCCCCCCCc3nn(CNc4ccc(OC)cc4)c(=S)o3)oc2=S)cc1
2. C=C1c2nc3ccccc3n2C=C(c2ccccc2)N1c1ccc(C)cc1
3. Cn1cc(-c2csc(-c3ccc(Cl)cc3)n2)c2cccnc21

stdout:
1: > 100 µM; 2: > 100 µM; 3: 26.6 µM

Give TGI for each of the items listed below.
1. C[C@@H]1C[C@@H]2OC(=O)[C@]3(C)[C@H]2[C@@H](OC3(C)O)[C@]2(C)C(=O)C=C[C@@H]12 (stereo partly specified)
2. N.N.N.N.O=S([O-])[O-].[Co+3].[N-]=[N+]=[N-]

stdout:
1. 32 µM
2. > 100 µM
